# assay-notes: Hemolytic activity against human RBC at 0.39 uM after 1 hr by Drabkin's assay relative to control
# Format: ADME, cell-based, Erythrocyte
# run-conditions: human red blood cells (erythrocytes), read-out: Activity
hemolysis at 1 h, 0.39 µM values for the compounds below.

test-smiles	unit-label	hemolysis at 1 h, 0.39 µM
O=CN1CCCN1C(=O)N1CCC[C@H]1C(=O)N1CCCN1C(=O)N1CCC[C@H]1C(=O)N1CCCN1C(=O)N1CCC[C@H]1C(=O)N1CCCN1C(=O)N1CCC[C@H]1C(=O)N1CCCN1C(=O)N1CCC[C@H]1C(=O)N1CCCN1C(=O)N1CCC[C@H]1C(=O)N1CCCN1C(=O)N1CCC[C@H]1C(=O)NCCO	%	0.023
O=C(O)[C@@H]1CCCN1C(=O)N1CCCN1C(=O)[C@@H]1CCCN1C(=O)N1CCCN1C(=O)[C@@H]1CCCN1C(=O)N1CCCN1C(=O)[C@@H]1CCCN1C(=O)N1CCCN1C(=O)[C@@H]1CCCN1C(=O)N1CCCN1C(=O)[C@@H]1CCCN1C(=O)N1CCCN1C(=O)[C@@H]1CCCN1C(=O)N1CCCN1C(=O)[C@@H]1CCCN1C(=O)N1CCCN1C(=O)OCc1ccccc1	%	-0.271
CC(C)(C)OC(=O)N1CCC[C@H]1C(=O)N1CCCN1C(=O)N1CCC[C@H]1C(=O)N1CCCN1C(=O)N1CCC[C@H]1C(=O)N1CCCN1C(=O)N1CCC[C@H]1C(=O)N1CCCN1C(=O)N1CCC[C@H]1C(=O)N1CCCN1C(=O)N1CCC[C@H]1C(=O)N1CCCN1C(=O)N1CCC[C@H]1C(=O)N1CCCN1C(=O)N1CCC[C@H]1C(=O)N1CCCN1C(=O)OCc1ccccc1	%	-0.04
O=C(O)[C@@H]1CCCN1C(=O)N1CCCN1C(=O)[C@@H]1CCCN1C(=O)N1CCCN1C(=O)[C@@H]1CCCN1C(=O)N1CCCN1C(=O)[C@@H]1CCCN1C(=O)N1CCCN1C(=O)OCc1ccccc1	%	0.09
CC(C)(C)OC(=O)[C@@H]1CCCN1C(=O)N1CCCN1C(=O)[C@@H]1CCCN1C(=O)N1CCCN1C(=O)[C@@H]1CCCN1C(=O)N1CCCN1C(=O)[C@@H]1CCCN1C(=O)N1CCCN1C(=O)[C@@H]1CCCN1C(=O)N1CCCN1C(=O)[C@@H]1CCCN1C(=O)N1CCCN1C(=O)[C@@H]1CCCN1C(=O)N1CCCN1C(=O)[C@@H]1CCCN1C(=O)N1CCCN1C(=O)OCc1ccccc1	%	0.08
CC(C)(C)OC(=O)[C@@H]1CCCN1C(=O)N1CCCN1C(=O)[C@@H]1CCCN1C(=O)N1CCCN1C(=O)[C@@H]1CCCN1C(=O)N1CCCN1C(=O)[C@@H]1CCCN1C(=O)N1CCCN1C(=O)[C@@H]1CCCN1C(=O)N1CCCN1C(=O)[C@@H]1CCCN1C(=O)N1CCCN1C(=O)[C@@H]1CCCN1C(=O)N1CCCN1C(=O)[C@@H]1CCCN1C(=O)N1CCCN1.Cl	%	-0.181
O=CN1CCCN1C(=O)N1CCC[C@H]1C(=O)N1CCCN1C(=O)N1CCC[C@H]1C(=O)N1CCCN1C(=O)N1CCC[C@H]1C(=O)N1CCCN1C(=O)N1CCC[C@H]1C(=O)N1CCCN1C(=O)N1CCC[C@H]1C(=O)NCCO	%	0.361

---

hemolysis at 1 h, 6.25 µM values for the compounds below.
# assay-notes: Hemolytic activity against human RBC at 6.25 uM after 1 hr by Drabkin's assay relative to control
# Assay type: ADME, cell-based, Erythrocyte
# run-conditions: human red blood cells (erythrocytes), read-out: Activity
quantity-kind: hemolysis at 1 h, 6.25 µM (%)

test-smiles	quantity-kind	unit-label	readout-value
O=C(O)[C@@H]1CCCN1C(=O)N1CCCN1C(=O)[C@@H]1CCCN1C(=O)N1CCCN1C(=O)[C@@H]1CCCN1C(=O)N1CCCN1C(=O)[C@@H]1CCCN1C(=O)N1CCCN1C(=O)[C@@H]1CCCN1C(=O)N1CCCN1C(=O)[C@@H]1CCCN1C(=O)N1CCCN1C(=O)[C@@H]1CCCN1C(=O)N1CCCN1C(=O)[C@@H]1CCCN1C(=O)N1CCCN1C(=O)OCc1ccccc1	hemolysis at 1 h, 6.25 µM	%	-0.09
CC(C)(C)OC(=O)[C@@H]1CCCN1C(=O)N1CCCN1C(=O)[C@@H]1CCCN1C(=O)N1CCCN1C(=O)[C@@H]1CCCN1C(=O)N1CCCN1C(=O)[C@@H]1CCCN1C(=O)N1CCCN1C(=O)[C@@H]1CCCN1C(=O)N1CCCN1C(=O)[C@@H]1CCCN1C(=O)N1CCCN1C(=O)[C@@H]1CCCN1C(=O)N1CCCN1C(=O)[C@@H]1CCCN1C(=O)N1CCCN1.Cl	hemolysis at 1 h, 6.25 µM	%	0
O=C(NCCO)[C@@H]1CCCN1C(=O)N1CCCN1C(=O)[C@@H]1CCCN1C(=O)N1CCCN1C(=O)[C@@H]1CCCN1C(=O)N1CCCN1C(=O)[C@@H]1CCCN1C(=O)N1CCCN1C(=O)[C@@H]1CCCN1C(=O)N1CCCN1C(=O)[C@@H]1CCCN1C(=O)N1CCCN1C(=O)[C@@H]1CCCN1C(=O)N1CCCN1C(=O)[C@@H]1CCCN1C(=O)N1CCCN1C(=O)OCc1ccccc1	hemolysis at 1 h, 6.25 µM	%	-0.11

---

# assay-notes: Hemolytic activity against human RBC at 1.56 uM after 1 hr by Drabkin's assay relative to control
# Format: ADME, cell-based, Erythrocyte
# run-conditions: human red blood cells (erythrocytes), read-out: Activity
quantity-kind: hemolysis at 1 h, 1.56 µM (%)

test-smiles	quantity-kind	readout-value
O=C(NCCO)[C@@H]1CCCN1C(=O)N1CCCN1C(=O)[C@@H]1CCCN1C(=O)N1CCCN1C(=O)[C@@H]1CCCN1C(=O)N1CCCN1C(=O)[C@@H]1CCCN1C(=O)N1CCCN1C(=O)[C@@H]1CCCN1C(=O)N1CCCN1C(=O)[C@@H]1CCCN1C(=O)N1CCCN1C(=O)[C@@H]1CCCN1C(=O)N1CCCN1C(=O)[C@@H]1CCCN1C(=O)N1CCCN1C(=O)OCc1ccccc1	hemolysis at 1 h, 1.56 µM	0.02
CC(C)(C)OC(=O)N1CCC[C@H]1C(=O)N1CCCN1C(=O)N1CCC[C@H]1C(=O)N1CCCN1C(=O)N1CCC[C@H]1C(=O)N1CCCN1C(=O)N1CCC[C@H]1C(=O)N1CCCN1C(=O)OCc1ccccc1	hemolysis at 1 h, 1.56 µM	0.189
O=CN1CCCN1C(=O)N1CCC[C@H]1C(=O)N1CCCN1C(=O)N1CCC[C@H]1C(=O)N1CCCN1C(=O)N1CCC[C@H]1C(=O)N1CCCN1C(=O)N1CCC[C@H]1C(=O)N1CCCN1C(=O)N1CCC[C@H]1C(=O)NCCO	hemolysis at 1 h, 1.56 µM	-0.452

---

# Test system: Candida albicans
# assay-notes: Growth inhibition of Candida albicans ATCC 90028 at 32 ug/ml after 24 hrs by OD530 light-scattering microspectrophotometric method
# run-conditions: ATCC 90028, 24 h, read-out: GI
inhibition of growth at 32 µg/mL values for the compounds below.

test-smiles	inhibition of growth at 32 µg/mL [%]
O=CN1CCCN1C(=O)N1CCC[C@H]1C(=O)N1CCCN1C(=O)N1CCC[C@H]1C(=O)N1CCCN1C(=O)N1CCC[C@H]1C(=O)N1CCCN1C(=O)N1CCC[C@H]1C(=O)N1CCCN1C(=O)N1CCC[C@H]1C(=O)N1CCCN1C(=O)N1CCC[C@H]1C(=O)N1CCCN1C(=O)N1CCC[C@H]1C(=O)N1CCCN1C(=O)N1CCC[C@H]1C(=O)NCCO	5.4
CC(C)(C)OC(=O)N1CCC[C@H]1C(=O)N1CCCN1C(=O)N1CCC[C@H]1C(=O)N1CCCN1C(=O)N1CCC[C@H]1C(=O)N1CCCN1C(=O)N1CCC[C@H]1C(=O)N1CCCN1C(=O)N1CCC[C@H]1C(=O)N1CCCN1C(=O)N1CCC[C@H]1C(=O)N1CCCN1C(=O)N1CCC[C@H]1C(=O)N1CCCN1C(=O)N1CCC[C@H]1C(=O)N1CCCN1C(=O)OCc1ccccc1	2.92
CC(C)(C)OC(=O)[C@@H]1CCCN1C(=O)N1CCCN1C(=O)[C@@H]1CCCN1C(=O)N1CCCN1C(=O)[C@@H]1CCCN1C(=O)N1CCCN1C(=O)[C@@H]1CCCN1C(=O)N1CCCN1	4.64
CN1CCCN1C(=O)[C@@H]1CCCN1C(=O)N1CCCN1C(=O)[C@@H]1CCCN1C(=O)N1CCCN1C(=O)[C@@H]1CCCN1C(=O)N1CCCN1C(=O)[C@@H]1CCCN1C(=O)N1CCCN1C(=O)[C@@H]1CCCN1C(=O)N1CCCN1C(=O)[C@@H]1CCCN1C(=O)N1CCCN1C(=O)[C@@H]1CCCN1C(=O)N1CCCN1C(=O)[C@@H]1CCCN1C(=O)N1CCCN1C(=O)OCc1ccccc1	3.49
O=CN1CCCN1C(=O)N1CCC[C@H]1C(=O)N1CCCN1C(=O)N1CCC[C@H]1C(=O)N1CCCN1C(=O)N1CCC[C@H]1C(=O)N1CCCN1C(=O)N1CCC[C@H]1C(=O)N1CCCN1C(=O)N1CCC[C@H]1C(=O)N1CCCN1C(=O)N1CCC[C@H]1C(=O)NCCO	5.12
O=C(O)[C@@H]1CCCN1C(=O)N1CCCN1C(=O)[C@@H]1CCCN1C(=O)N1CCCN1C(=O)[C@@H]1CCCN1C(=O)N1CCCN1C(=O)[C@@H]1CCCN1C(=O)N1CCCN1C(=O)[C@@H]1CCCN1C(=O)N1CCCN1C(=O)[C@@H]1CCCN1C(=O)N1CCCN1C(=O)[C@@H]1CCCN1C(=O)N1CCCN1C(=O)[C@@H]1CCCN1C(=O)N1CCCN1C(=O)OCc1ccccc1	2.73
